Data credit: PubChem BioAssay

# experimentDescription: growth inhibitors of H69AR lung tumor, primary screen, human, duplicate replicates (AID 580);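 note: 100% = mean luminescence of untreated wells and 0% = no signal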
# recordedConditions: H69AR lung tumor cells viability, ATP luminescence, 72 h; at 10 µM
The source made the active and inactive calls.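 Rule for the calls: active = viability at or under a set limit in both replicates, limit being median viability minus 3 SD (cut at about 48% in these data, passing the limit was not always enough); inconclusive = at or under the limit in just one replicate; inactive = at or above the limit in both replicates.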
Reply using exactly one outcome from true (1) for active, false (0) for inactive

As a guide, the following entries are already answered.
{"compound": "CC(C)(C)NCc1cc2ccccc2[nH]c1=O", "classLabel": "false (0)"}
{"compound": "CC12CN3CC(C)(CN(C1)C3c1cc(Br)ccc1O)C2=O (configuration not stated)", "classLabel": "false (0)"}
{"compound": "CCCN1C2CCCC1CC(NC(=O)Nc1cccc(C(C)=O)c1)C2 (configuration not stated)", "classLabel": "false (0)"}

Test call for this compound, please: CC(NC(=O)Nc1nccs1)(C(F)(F)F)C(F)(F)F
false (0)

Could you please tell me the result logged for COc1cccc(OC)c1OCCN1CCN(C(=O)c2ccco2)CC1 in this assay?
false (0)
